Tested on: L1210 leukemia ip in BDF1 mice, survival T/C
Assay: NCI In Vivo Anticancer Drug Screen. Data for tumor model L1210 Leukemia (intraperitoneal) in B6D2F1 (BDF1) mice
Settings: endpoint: mean survival time; dose: 200.0 mg/kg/injection; schedule: Q04DX003 (ip); vehicle: Klucel (hydroxypropylcellulose) (HPC); higher = longer survival
Toxic doses and inconclusive results are not listed.
Documented T/C across a set of compounds

Asked: Any idea what its T/C is? The compound is CC(C)(CSCC(C)(C)C(=O)O)C(=O)O
Given back: 94 % of control

Asked: T/C for OCCNC1c2ccccc2-c2ccccc21 ?
Given back: 107 % of control

Asked: Consider the compound c1ccc([Si](O[O][Ge]([c]2ccccc2)([c]2ccccc2)[c]2ccccc2)(c2ccccc2)c2ccccc2)cc1 and give its measured T/C.
Given back: 86 % of control

Asked: Suppose we examine the compound O=C1C(Cl)=C(Cl)C(=O)N1CCCCCCN1C(=O)C(Cl)=C(Cl)C1=O ; what T/C value has been reported?
Given back: 87 % of control

Asked: Endpoint output: T/C of O=C1CC2(CCCCC2)C(=O)N1Nc1ccccc1 . Value?
Given back: 98 % of control

Asked: Tell me the measured T/C of Cc1ccc(S(=O)(=O)N(C)c2cc(Cl)c(I)cc2Cl)cc1 , please.
Given back: 98 % of control

Asked: What measured T/C goes with Clc1cc(Cl)c2c(c1)COCO2 ?
Given back: 102 % of control

Asked: Given the entry N#CC(c1ccccc1)c1ccc(F)cc1 (stereo unspecified) , report its measured T/C.
Given back: 96 % of control

Asked: Quick check: T/C of C/C=C(\C)C(=O)OC1CC(C)=C2C(=O)C=C(C)C2C2OC(=O)C(C)C12 (stereo unspecified) ?
Given back: 102 % of control

Asked: // query T/C value for entry O=S(=O)(Nc1ccccc1)c1ccc(C2CC3(Cl)C(Cl)=C(Cl)C2(Cl)C3(Cl)Cl)cc1 (stereo unspecified)
Given back: 97 % of control

---

System: L1210 leukemia ip in BDF1 mice, survival T/C
Experiment: NCI In Vivo Anticancer Drug Screen. Data for tumor model L1210 Leukemia (intraperitoneal) in B6D2F1 (BDF1) mice
Conditions: endpoint: mean survival time; dose: 100.0 mg/kg/injection; schedule: Q01DX001 (ip); vehicle: saline; higher = longer survival
Toxic doses and inconclusive results are not listed.
MEASURED_PARAMETER: T/C

Asked: Suppose we examine the molecule [N-]=[N+]=C1N=NC=C1C(N)=O ; what T/C value has been reported?
Given back: 107 % of control

---

Quick reference for T/C among some compounds
System: L1210 leukemia ip in BDF1 mice, survival T/C
Experiment: NCI In Vivo Anticancer Drug Screen. Data for tumor model L1210 Leukemia (intraperitoneal) in B6D2F1 (BDF1) mice
Conditions: endpoint: mean survival time; dose: 200.0 mg/kg/injection; schedule: Q01DX009 (ip); vehicle: Klucel (hydroxypropylcellulose) (HPC); higher = longer survival
Inconclusive results and toxic doses are left out.

// worked examples, T/C included
CC(C)=CCCC(=O)NC(=O)NS(=O)(=O)c1ccc(Cl)cc1
96 % of control
Cc1ccc(NC(=S)N(CCC#N)C2CCCCC2)cc1
104 % of control
Cc1ccc(NC(=S)N2CCCCC2C)cc1C (configuration not stated)
101 % of control
Nc1ccc2[nH]c3ccccc3c2c1
95 % of control
OC(c1ccccc1)(c1c2ccccc2cc2ccccc12)C1CCC1 (configuration not stated)
102 % of control
O=C(N/N=C/c1ccccc1[N+](=O)[O-])c1ccccc1
94 % of control

Asked: Request the reported T/C associated with COc1ccc(C)cc1NC(=O)Nc1cc([N+](=O)[O-])ccc1C
Given back: 98 % of control

Asked: Reported T/C, compound Cc1cccc(C)c1NC(=O)c1ccc(Cl)cc1Cl : ____
Given back: 104 % of control
